Sequence of the target: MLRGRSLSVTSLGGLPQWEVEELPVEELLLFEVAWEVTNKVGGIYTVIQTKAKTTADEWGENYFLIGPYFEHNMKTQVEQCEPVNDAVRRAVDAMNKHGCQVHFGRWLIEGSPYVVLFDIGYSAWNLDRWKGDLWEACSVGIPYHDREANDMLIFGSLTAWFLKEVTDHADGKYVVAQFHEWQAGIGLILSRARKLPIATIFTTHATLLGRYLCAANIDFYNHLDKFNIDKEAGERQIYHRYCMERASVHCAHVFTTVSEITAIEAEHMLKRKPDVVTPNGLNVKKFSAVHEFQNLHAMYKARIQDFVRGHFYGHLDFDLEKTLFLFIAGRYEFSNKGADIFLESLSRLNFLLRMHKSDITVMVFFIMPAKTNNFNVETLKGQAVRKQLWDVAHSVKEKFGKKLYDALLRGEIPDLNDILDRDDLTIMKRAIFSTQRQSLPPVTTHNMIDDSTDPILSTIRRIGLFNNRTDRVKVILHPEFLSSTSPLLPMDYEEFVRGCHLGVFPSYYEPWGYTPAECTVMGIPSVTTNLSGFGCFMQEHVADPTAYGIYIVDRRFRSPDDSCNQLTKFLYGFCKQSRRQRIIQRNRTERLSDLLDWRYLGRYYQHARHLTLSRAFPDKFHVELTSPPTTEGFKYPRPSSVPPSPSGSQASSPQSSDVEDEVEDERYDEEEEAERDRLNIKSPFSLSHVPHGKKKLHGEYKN
Measured IC50 of individual entries

The cases that follow already have their IC50 on record.
1) CC(C)c1ccc([C@@H](NC(=O)[C@@H]2C[C@@H](F)CN2C(=O)Cn2cc(N3CCC3)nn2)c2ccccc2)nc1F    > 100 µM
2) CC(=O)N1C[C@H](F)C[C@H]1C(=O)NC(c1ccc(C(C)C)cc1)c1ccccc1N (single isomer, unassigned)    > 100 µM

// switching to the query compound
Value lookup for IC50; key = `CC(C)c1ccc([C@@H](NC(=O)[C@@H]2C[C@@H](F)CN2C(=O)CC2COC2)c2ccccc2)cc1`
> 100 µM

----------
assayedTarget: Glycogen [starch] synthase, muscle (Homo sapiens)
Sequence (P13807 whole entry): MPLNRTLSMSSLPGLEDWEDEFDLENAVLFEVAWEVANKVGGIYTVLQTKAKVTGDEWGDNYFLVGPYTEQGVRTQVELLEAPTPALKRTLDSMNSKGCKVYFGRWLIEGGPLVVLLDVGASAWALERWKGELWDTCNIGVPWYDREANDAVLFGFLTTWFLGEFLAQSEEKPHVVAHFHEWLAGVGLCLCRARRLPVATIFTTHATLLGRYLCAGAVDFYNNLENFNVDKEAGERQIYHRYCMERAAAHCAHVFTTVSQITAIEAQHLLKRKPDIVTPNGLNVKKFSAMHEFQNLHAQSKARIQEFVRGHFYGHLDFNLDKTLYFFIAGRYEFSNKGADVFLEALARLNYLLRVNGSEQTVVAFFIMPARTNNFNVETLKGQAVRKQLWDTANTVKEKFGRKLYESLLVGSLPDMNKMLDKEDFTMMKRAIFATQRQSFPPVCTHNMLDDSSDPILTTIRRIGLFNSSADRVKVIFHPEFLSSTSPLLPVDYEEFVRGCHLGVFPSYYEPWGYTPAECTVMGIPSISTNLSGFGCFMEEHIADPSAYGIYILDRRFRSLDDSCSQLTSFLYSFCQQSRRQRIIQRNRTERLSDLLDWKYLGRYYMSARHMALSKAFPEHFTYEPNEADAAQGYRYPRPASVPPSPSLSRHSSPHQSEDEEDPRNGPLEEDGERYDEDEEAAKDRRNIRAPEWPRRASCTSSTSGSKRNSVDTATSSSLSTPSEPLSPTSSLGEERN
experimentalProtocol: Kinetic Biochemical Assay
pIC50: −log10 of the molar value.
outcomeMeasure: pIC50

1) CC(=O)N1C[C@H](F)C[C@H]1C(=O)NC(c1ccc2cnn(C)c2c1)c1ccc(C(C)C)c(F)n1 (single isomer, unassigned) [US11814367, Compound 635]    7.09

P: CC(=O)N1C[C@H](F)C[C@H]1C(=O)NC(c1ccc2cn(C)nc2c1)c1ccc(C(C)C)c(F)n1 (single isomer, unassigned) [US11814367, Compound 636]
Q: CC(=O)N1C[C@H](F)C[C@H]1C(=O)NC(c1ccc(C(C)C)cc1)c1ccccc1N (single isomer, unassigned) [US11814367, Compound 642]
R: CC(C)c1ccc([C@@H](NC(=O)[C@@H]2C[C@@H](F)CN2C(=O)CC2COC2)c2ccccc2)cc1 [US11814367, Compound 218]
Form: Sort by [pIC50] Order [ ascending ] Hello, could you send the labels back in the order asked? Thank you.
Q, R, P
(Q: 5.88, R: 6.53, P: 7.15)
